Test system: MALME-3M melanoma
assay overview: NCI tumour cell line growth inhibition, 48 h
property name: TGI

# TGI of `CC(=O)Oc1ccc(Nn2c3ccccc3c3ccccc32)c(C)c1` = > 100 µM

Short answer for COc1cc(C2C(C(=O)O)=C(COC(C)=O)Oc3cc4c(cc32)OCO4)cc(OC)c1OC(C)=O (stereo not drawn) : TGI was > 100 µM

Lab book: TGI of `COc1cc2c(cc1OCCCCn1c(-c3cccs3)nc3ccccc31)N=C[C@@H]1CCCN1C2=O` noted as 3.27 µM

Just so you know, measured TGI for `O=C(Oc1c(Br)cc(Br)cc1C(=O)Oc1ccccc1)C(=O)Oc1c(Br)cc(Br)cc1C(=O)Oc1ccccc1` came out at 59.2 µM

The value of TGI measured for the compound `O=c1[nH]c2ccccc2n2cc3ccccc3c12` turned out to be 46.5 µM

Notebook: NC1=NC2=C(CCCC2)C(c2cccs2)S1 (stereo not drawn) , TGI read as > 100 µM

Record `CC1(C)SCc2nc3ccccc3n21` . Reported TGI: > 100 µM

* * *

System: OVCAR-3 ovarian
assay overview: NCI tumour cell line growth inhibition, 48 h; in the data active = GI50 below about 0.43 µM; inactive = the rest
Mark one answer only. Choices: t = active, f = inactive

compound | qualitative label
CCOC(=O)Nc1ccc2c(c1)N(C(=O)CCN(CC)CC)c1ccccc1S2 | f
NC(=O)CCc1ccccc1Oc1nccc(-c2c(-c3ccc(F)cc3)ncn2C2CCNCC2)n1 | f
N#C/C(=C\c1ccc(F)cc1)n1nc2cccc(F)c2n1 | f

Test call, this compound: `NCCCn1c2c(c3ccc([N+](=O)[O-])cc3c1=O)C(=O)c1cc(F)ccc1-2`
t

For this compound, state the assay outcome: `O=C(c1cccs1)c1nc2cc(Cl)ccc2[n+]([O-])c1C(F)(F)F`
f

Could you kindly confirm the outcome this assay logged for CCN(CC)CC(O)COc1c(Br)c(Br)c(Br)c2c1OC(C)(C)C2 (stereo unspecified) ?
f

* * *

Tested on: SF-268 CNS
assay overview: NCI tumour cell line growth inhibition, 48 h
# TGI values compiled below
Please respond with the number in µM and leave the unit unwritten.

compound | test target | TGI [µM]
CCC(C)CC(C)C(=O)c1c(O)ccn(O)c1=O (stereo not drawn) | SF-268 CNS | 45.3

Proceed to the following item.
Measured TGI, CC(=O)OCC1OC(OC(C)=O)C(Nc2ncc(-c3ccc(C)cc3)s2)C(OC(C)=O)C1OC(C)=O (stereo not drawn) : 36.2

* * *

Tested on: NCI/ADR-RES ovarian
assay overview: NCI tumour cell line growth inhibition, 48 h; in the data active = GI50 below about 0.43 µM; inactive = the rest
Mark one answer only. Choices: 1 for active, 0 for inactive

Answered examples (3):
compound | qualitative label
CCC(C)(C)[C@H](NC(=O)[C@H]1CCCCN1C)C(=O)N(C)[C@H](C[C@@H](OC(C)=O)c1nc(C(=O)N[C@@H](Cc2ccccc2)C[C@H](C)C(=O)O)cs1)C(C)C | 1
COc1ncc(-c2ccc3nccc(C#CCN4CCN(S(C)(=O)=O)CC4)c3c2)cc1NS(=O)(=O)c1ccc(F)cc1F | 0
O=C1c2cccnc2C(=O)c2c1c(C(=O)OCCc1ccccn1)c1ccccn21 | 1

Alright, here's another compound for you.
Could you check what this test reported for `COc1cc(/C=C/C(=O)c2c(C)nc3ccccc3c2C)ccc1OCCCCOc1cc2c(cc1OC)C(=O)N1CCC[C@H]1C=N2` ?
0
